The reported numbers originate from patent US7998940B2.

- Tested on: full length human vWF (SEQ ID NO 7)
- assayExplanation: dot blot KD determination and extent of binding, full length human vWF;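 note: dot blot binding of aptamers to full length human vWF across a protein titration, incubated 30 minutes at room temperature in 1x DPBS with BSA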
- testConditions: Phase 1 modification; full length human vWF, dot blot, 8 point protein titration; read-out: KD
Oligonucleotides are written 5' to 3', each unit as a sugar letter and its base; * is a phosphorothioate linkage, no mark a phosphodiester; rarer units and linkages stand in square brackets, end groups in braces. Plain capitals give the bases only. [invdT] = inverted (3'-3') thymidine; d = 2'-deoxy (DNA); m = 2'-O-methyl
valueType: Kd (nM)
Numbers only; they are read as nM.

Task item: Looking for the measured Kd of ARC1235: ARC1172 with composite 2'-O methyl replacements in the stem regions (mGmGdCmGdTmGdCdAdGdTdGdCdCdTdTdCdGdGdCdCdGdTdGdCdGdGdTdGdCdCdTdCdCdGdTdCmAdCmGdCdC[invdT]; aptamer) , can you help?
Reply: 13

Task item: // next record ARC1209: ARC1172 with one residue replaced by 2'-O methyl residue (DNA dGdGdCdGdTdGdCdAdGdTdGdCdCdTdTmCdGdGdCdCdGdTdGdCdGdGdTdGdCdCdTdCdCdGdTdCdAdCdGdCdC[invdT]; aptamer)
Reply: 2

Task item: // next record ARC1205: ARC1172 with one residue replaced by 2'-O methyl residue (DNA dGdGdCdGdTdGdCdAdGdTdGmCdCdTdTdCdGdGdCdCdGdTdGdCdGdGdTdGdCdCdTdCdCdGdTdCdAdCdGdCdC[invdT]; aptamer)
Reply: 1

Task item: // next record ARC1214: ARC1172 with one residue replaced by 2'-O methyl residue (DNA dGdGdCdGdTdGdCdAdGdTdGdCdCdTdTdCdGdGdCdCmGdTdGdCdGdGdTdGdCdCdTdCdCdGdTdCdAdCdGdCdC[invdT]; aptamer)
Reply: 3

Task item: // next record ARC1238: ARC1172 with composite 2'-O methyl replacements in the stem regions (dGdGdCdGdTdGdCdAdGdTmGdCdCdTdTdCmGmGdCdCdGdTdGdCdGdGdTdGdCdCdTdCdCdGdTdCdAdCdGdCdC[invdT]; aptamer)
Reply: 2

Task item: // next record ARC1210: ARC1172 with one residue replaced by 2'-O methyl residue (DNA dGdGdCdGdTdGdCdAdGdTdGdCdCdTdTdCmGdGdCdCdGdTdGdCdGdGdTdGdCdCdTdCdCdGdTdCdAdCdGdCdC[invdT]; aptamer)
Reply: 2

Task item: // next record ARC1220: ARC1172 with one residue replaced by 2'-O methyl residue (dGdGdCdGdTdGdCdAdGdTdGdCdCdTdTdCdGdGdCdCdGdTdGdCdGdGmUdGdCdCdTdCdCdGdTdCdAdCdGdCdC[invdT]; aptamer)
Reply: 11

Task item: // next record ARC1230: ARC1172 with one residue replaced by 2'-O methyl residue (dGdGdCdGdTdGdCdAdGdTdGdCdCdTdTdCdGdGdCdCdGdTdGdCdGdGdTdGdCdCdTdCdCdGdTdCmAdCdGdCdC[invdT]; aptamer)
Reply: 3

Task item: // next record ARC1206: ARC1172 with one residue replaced by 2'-O methyl residue (DNA dGdGdCdGdTdGdCdAdGdTdGdCmCdTdTdCdGdGdCdCdGdTdGdCdGdGdTdGdCdCdTdCdCdGdTdCdAdCdGdCdC[invdT]; aptamer)
Reply: 2

Task item: // next record ARC1198: ARC1172 with one residue replaced by 2'-O methyl residue (DNA dGdGdCdGmUdGdCdAdGdTdGdCdCdTdTdCdGdGdCdCdGdTdGdCdGdGdTdGdCdCdTdCdCdGdTdCdAdCdGdCdC[invdT]; aptamer)
Reply: 0.9

Task item: // next record ARC1233: ARC1172 with one residue replaced by 2'-O methyl residue (dGdGdCdGdTdGdCdAdGdTdGdCdCdTdTdCdGdGdCdCdGdTdGdCdGdGdTdGdCdCdTdCdCdGdTdCdAdCdGmCdC[invdT]; aptamer)
Reply: 2

Task item: // next record ARC1201: ARC1172 with one residue replaced by 2'-O methyl residue (DNA dGdGdCdGdTdGdCmAdGdTdGdCdCdTdTdCdGdGdCdCdGdTdGdCdGdGdTdGdCdCdTdCdCdGdTdCdAdCdGdCdC[invdT]; aptamer)
Reply: 0.9

Task item: // next record ARC1196: ARC1172 with one residue replaced by 2'-O methyl residue (DNA dGdGmCdGdTdGdCdAdGdTdGdCdCdTdTdCdGdGdCdCdGdTdGdCdGdGdTdGdCdCdTdCdCdGdTdCdAdCdGdCdC[invdT]; aptamer)
Reply: 2

Task item: // next record ARC1212: ARC1172 with one residue replaced by 2'-O methyl residue (DNA dGdGdCdGdTdGdCdAdGdTdGdCdCdTdTdCdGdGmCdCdGdTdGdCdGdGdTdGdCdCdTdCdCdGdTdCdAdCdGdCdC[invdT]; aptamer)
Reply: 2

Task item: // next record ARC1223: ARC1172 with one residue replaced by 2'-O methyl residue (dGdGdCdGdTdGdCdAdGdTdGdCdCdTdTdCdGdGdCdCdGdTdGdCdGdGdTdGdCmCdTdCdCdGdTdCdAdCdGdCdC[invdT]; aptamer)
Reply: 36

Task item: // next record ARC1194: ARC1172 with one residue replaced by 2'-O methyl residue (DNA mGdGdCdGdTdGdCdAdGdTdGdCdCdTdTdCdGdGdCdCdGdTdGdCdGdGdTdGdCdCdTdCdCdGdTdCdAdCdGdCdC[invdT]; aptamer)
Reply: 3
